What combination Emax was measured for each of the following?
# Tested on: ST486 (Burkitt's Lymphoma)
# procedureDetails: combination Emax (second highest fraction inhibited in the dose matrix, 72 h); higher = more inhibition; extreme values may be limits of the assay
Numbers only.

Below: 5 compounds and their reported combination Emax.
compound="COc1cccc(OCCCN)c1-c1cc(Nc2cnc(C#N)cn2)n[nH]1 [Prexasertib] + CCc1c2c(nc3ccc(O)cc13)-c1cc3c(c(=O)n1C2)COC(=O)[C@]3(O)CC [SN-38] (first compound max 1 µM, 7x7, partner max 0.3 µM)" assayendpoint="combination Emax" number=1
compound="COc1nnc2ccc(N3CCC(c4ccc(OCCN5CCN(C)C(=O)[C@H]5C)cc4)CC3)nn12 [AZD5153] + C=CCn1c(=O)c2cnc(Nc3ccc(N4CCN(C)CC4)cc3)nc2n1-c1cccc(C(C)(C)O)n1 [AZD1775] (first compound max 1 µM, partner max 1 µM)" assayendpoint="combination Emax" number=0.985
compound="C=CCn1c(=O)c2cnc(Nc3ccc(N4CCN(C)CC4)cc3)nc2n1-c1cccc(C(C)(C)O)n1 [AZD1775] + C[C@@H]1COCCN1C2=NC(=NC(=C2)C3(CC3)[S@](=N)(=O)C)C4=C5C=CNC5=NC=C4 [AZD6738] (first compound max 1 µM, partner max 10 µM)" assayendpoint="combination Emax" number=0.979
compound="Cc1cc2ncnn2cc1Nc1ncc2c(n1)n(C1CCOCC1)c(=O)n2C [AZD7648] + C[C@@H]1COCCN1C2=NC(=NC(=C2)C3(CC3)[S@](=N)(=O)C)C4=C5C=CNC5=NC=C4 [AZD6738] (first compound max 10 µM, 7x7, partner max 10 µM)" assayendpoint="combination Emax" number=0.893
compound="CC1(C)CCC(CN2CCN(c3ccc(C(=O)NS(=O)(=O)c4ccc(NCC5CCOCC5)c([N+](=O)[O-])c4)c(Oc4cnc5[nH]ccc5c4)c3)CC2)=C(c2ccc(Cl)cc2)C1 [Venetoclax] + Cc1cc2ncnn2cc1Nc1ncc2c(n1)n(C1CCOCC1)c(=O)n2C [AZD7648] (first compound max 1 µM, 7x7, partner max 10 µM)" assayendpoint="combination Emax" number=0.69

List combination Emax for every entry below, keeping the order given.
1. CCN(CCO)CCCOc1ccc2c(Nc3cc(CC(=O)Nc4cccc(F)c4)[nH]n3)ncnc2c1 [AZD2811] + C[C@@H]1COCCN1C2=NC(=NC(=C2)C3(CC3)[S@](=N)(=O)C)C4=C5C=CNC5=NC=C4 [AZD6738] (first compound max 1 µM, 7x7, partner max 10 µM)
2. CC1(C)CCC(CN2CCN(c3ccc(C(=O)NS(=O)(=O)c4ccc(NCC5CCOCC5)c([N+](=O)[O-])c4)c(Oc4cnc5[nH]ccc5c4)c3)CC2)=C(c2ccc(Cl)cc2)C1 [Venetoclax] + C1CN(CCC1(C(=O)N[C@@H](CCO)C2=CC=C(C=C2)Cl)N)C3=NC=NC4=C3C=CN4 [Capivasertib] (first compound max 1 µM, 7x7, partner max 3 µM)

1: 0.913; 2: 0.759
